# SYSTEM: T1, Angiopoietin 1 (UniProt Q15389)
# T1 chain: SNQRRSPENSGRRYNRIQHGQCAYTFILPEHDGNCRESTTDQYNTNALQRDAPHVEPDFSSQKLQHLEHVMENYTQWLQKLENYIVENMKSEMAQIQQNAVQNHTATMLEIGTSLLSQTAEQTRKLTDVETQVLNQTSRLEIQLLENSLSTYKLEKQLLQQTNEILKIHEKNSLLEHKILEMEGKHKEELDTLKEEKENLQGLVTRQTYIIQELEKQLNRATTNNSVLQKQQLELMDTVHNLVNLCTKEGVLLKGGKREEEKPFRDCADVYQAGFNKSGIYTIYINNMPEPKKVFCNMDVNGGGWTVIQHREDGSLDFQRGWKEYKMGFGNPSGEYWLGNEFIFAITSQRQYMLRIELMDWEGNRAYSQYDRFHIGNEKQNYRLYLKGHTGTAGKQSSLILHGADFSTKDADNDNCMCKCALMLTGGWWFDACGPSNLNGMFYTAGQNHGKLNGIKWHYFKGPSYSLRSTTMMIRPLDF
# PROTOCOL_TEXT: competition, blocking Tie-2
Below, each of the binders is paired with its reported pIC50 value.
Would you please state pIC50, meaning minus log10 of the concentration in mol/L, as a bare number?

Use these answered entries as a reference point.
INSERT INTO results (binder, measured_number) VALUES
  ('HC4/LC4 (antibody, V domains shown) VH: EVQLLESGGGLVQPGGSLRLSCAASGFTFSNYAMSWVRQAPGKGLEWVSAISHGGSSKYYADSVKGRFTISRDNSKNTLYLQMNSLRAEDTAVYYCARDRTASLLDGFDYWGQGTLVTVSS VL: QSVLTQPPSASGTPGQRVTISCSGSSSNIGNNYVNWYQQLPGTAPKLLIYADSNRPSGVPDRFSGSKSGTSASLAISGLRSEDEADYYCGTWDASLSGYVFGGGTKLTVL', 9.59),
  ('HC22/LC22 (antibody, V domains shown) VH: EVQLVQSGAEVKKPGASVKVSCKASGGTFSSYAISWVRQAPGQGLEWMGGIIPIFGTANYAQKFQGRVTITADESTSTAYMELSSLRSEDTAVYYCARGGSGRFDYWGQGTLVTVSS VL: QSALTQPASVSGSPGESIIISCTGTSSDVGAYNYVSWYQQHLGKAPKLMIYDVSQRPSGVSDRFSGSKSGNTASLTISGLQAEDEADYYCSSFTGDSVIFGGGTKLTVL', 9.62),
  ('HC14/LC14 (antibody, V domains shown) VH: EVQLLESGGGLVQPGGSLGLSCAASGFTLSNYDMSWVRQAPGKGLEWVSWISPDSSSTYYADSVKGRFTISRDNSKNTLYLQMNSLRAEDTAVYYCARSVMPFDYWGQGTLVTVSS VL: QSVLTQPPSASGTPGQRVTISCSGSSSNIGSNAVYWYQQLPGTAPKLLIYDDSKRPSGVPDRFSGSKSGTSASLAIGGLRSEDEADYYCGAWDDSLSAYVFGGGTKLTVL', 9.13),
  ('HC2/LC2 (antibody, V domains shown) VH: EVQLLESGGGLVQPGGSLRLSCAASGFTFSNYAMSWVRQAPGKGLEWVSVISPGSGNTYYADSVKGRFTISRDNSKNTLYLQMNSLRAEDTAVYYCAKGALKCRHRSCSSYNAMDVWGQGTLVTVSS VL: QSVLTQPPSASGTPGQRVTISCTGSSSNIGNNDVSWYQQLPGTAPKLLIYDNNHRPSGVPDRFSGSKSGTSASLAISGLRSEDEADYYCGTWDASLNGYVFGGGTKLTVL', 9.64),
  ('HC18/LC18 (antibody, V domains shown) VH: EVQLLESGGGLVQPGGSLRLSCAASGFTFSDYDMSWVRQAPGKGLEWVSWISPDDGSIYYADSVKGRFTISRDNSKNTLYLQMNSLRAEDTAVYYCARSVLPFDYWGQGTLVTVSS VL: QSVLTQPPSASGTPGQRVTISCSGSSSNIGSNAVYWYQQLPGTAPKLLIYDDSKRPSGVPDRFSGSKSGTSASLAISGFRSEDEADYYCGSWDASLNAYVFGGGTKLTVL', 9.62),
  ('HC10/LC10 (antibody, V domains shown) VH: EVQLVESGGGLVQPGGSLRLSCAASGFTFSNYAMSWVRQAPGKGLEWVSWIYPDNGNTYYADSVKGRFTISRDNSKNTLYLQMNSLRAEDTAVYYCAKYSLDKYTPWPYSYYGMDVWGQGTLVTVSS VL: QSVLTQPPSASGTPGQRVTISCTGSSSNIGNNAVTWYQQLPGTAPKLLIYDDSHRPSGAPDRFSGSKSGTSASLAISGLRSEDEADYYCGTWDASLSAYVFGGGTKLTVL', 9.72);

Let us examine a further case.
pIC50 for HC16/LC16 (antibody, V domains shown) VH: EVQLLESGGGLVQPGGSLRLSCAASGFTFSDYYMSWVRQAPGKGLEWVSSISYDDGSRKYYADSGKRSVTISRDNSKNTLYLQMNSLRAEDTAVYYCARDRSTLRLDSFDYWGQGTLVTVSS VL: QSVLTQPPSASGTPGRRVTISCSGSSPNIGNNTVNWYQQLPGTAPKLLIYSDSHRPSGVPDRFSGSKSGTSASLAISGLRSEDEADYYCGAWDYSLNAYVFGGGTKLTVL ? 9.59
